Collected growth inhibition values appear next to each entry.
- PROCEDURE DETAILS: NCI Yeast Anticancer Drug Screen. Data for the mlh1 strain (AID 171);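 also: 0% = growth of vehicle-treated control cultures of the same strain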
- RUN PARAMETERS: S. cerevisiae mlh1 strain growth inhibition; at 11.0 µM; active compounds read high
The panel holds about 79,000 compounds, 15% with a hit somewhere; the sample as a whole holds those more often.
Report as a plain number; the unit % is understood.

Study these solved cases before continuing.
1. C=C[C@H]1CN2CC[C@H]1C[C@@H]2[C@@H](O)c1ccnc2ccccc12 | -6
2. CN(CCc1ccc(Br)cc1)CCN1CCCCC1 | 41
3. O=C(NNC(=O)OCC(Cl)(Cl)Cl)OCC(Cl)(Cl)Cl | 20
4. COc1ccc(/C=C(/C)[N+](=O)[O-])cc1 | -2
5. C[CH2][Sn]([CH2]C)([O]S(C)(=O)=O)[O]S(C)(=O)=O | -33

Consider now this further compound.
**Query** Give the measured growth inhibition for OC1(c2ccccc2)CC2CCC(C1)N2CCCC(O)(c1ccccc1)c1ccccc1 (stereo unspecified)
**Result** 3

* * *

- PROCEDURE DETAILS: NCI Yeast Anticancer Drug Screen. Data for the bub3 strain (AID 167)
- RUN PARAMETERS: S. cerevisiae bub3 mutant strain, at 5.0 µM (retest, dose inferred, filed as 0.5), active compounds read high
The panel holds about 79,000 compounds, 15% with a hit somewhere; the sample as a whole holds those more often.
ASSAY METRIC: growth inhibition (%)
Report as a plain number; the unit % is understood.

1) O=[n+]1c2ccccc2n([O-])c2ccccc21.[Cl][Ni][Cl] | 68
2) O=C1C=CC(=O)N1c1cccc2ccccc12 (tested in a mixture with another compound) | -8
3) C[C@]12CC/C(=N\NC(=O)c3ccncc3)C[C@@H]1CC[C@@H]1[C@@H]2CC[C@]2(C)[C@@H](O)CC[C@@H]12 | 2
4) N#CC(C#N)=Cc1cccc([N+](=O)[O-])c1 | 9

**Query** Give the measured growth inhibition for [Ni+2].[O-][Cl+3]([O-])([O-])O.c1ccc([PH+](CC[PH+](c2ccccc2)c2ccccc2)c2ccccc2)cc1.c1ccc([PH+](CC[PH+](c2ccccc2)c2ccccc2)c2ccccc2)cc1
**Result** 4

**Query** Give the measured growth inhibition for CC1(C)CC(=O)C([Se]C2=C(O)CC(C)(C)CC2=O)=C(O)C1
**Result** 40

**Query** Give the measured growth inhibition for CCC[CH2][Sn]([CH2]CCC)([S]C1=NCCS1)[S]C1=NCCS1
**Result** 95

**Query** Give the measured growth inhibition for c1ccc2c3ccn4cc5c(cc4c-3nc2c1)CCCC5
**Result** 1

**Query** Give the measured growth inhibition for Cc1cccc(NC(=O)CBr)c1
**Result** 63

**Query** Give the measured growth inhibition for O=[N+]([O-])[O-].O=[N+]([O-])[O-].[Au].[Au].c1ccc([P-]c2ccccc2)cc1.c1ccc([P-]c2ccccc2)cc1
**Result** 53

**Query** Give the measured growth inhibition for CCCCN(CCCC)CCc1ccc(OC(=O)c2ccc(N)cc2)cc1
**Result** 50

**Query** Give the measured growth inhibition for O=[C-]CCCCCC[C-]=O.[C-]#[O+].[C-]#[O+].[C-]#[O+].[C-]#[O+].[Fe+6].[Fe+6].[c-]1[c-][c-][cH-][c-]1.[c-]1[c-][c-][cH-][c-]1
**Result** -4

* * *

- PROCEDURE DETAILS: NCI Yeast Anticancer Drug Screen. Data for the cln2 rad14 strain (AID 165);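 also: 0% = growth equal to vehicle treated cultures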
- RUN PARAMETERS: S. cerevisiae cln2 rad14 strain, at 50.0 µM (retest, dose inferred, filed as 5.0), active compounds read high
Compounds without any hit were thinned out: in the full panel of roughly 79,000, 15% have a hit.
ASSAY METRIC: growth inhibition (%)
Report as a plain number; the unit % is understood.

Study these solved cases before continuing.
1) c1ccc2cc3n[se]nc3cc2c1 | 2
2) O=[N+]([O-])O.O=[N+]([O-])O.[NH-]C1CCCCC1[NH-].[Pt+2] (stereo unspecified) | 97
3) Oc1ccc(Br)cc1C1N(Cc2ccc(N(CCCl)CCCl)cc2Cl)CCCN1Cc1ccc(N(CCCl)CCCl)cc1Cl | 98
4) N#CC(C#N)=Cc1cccc([N+](=O)[O-])c1 | 28
5) CC(=O)[O][Hg][c]1cc2c(cc1O)Cc1cc([N+](=O)[O-])ccc1-2 | 98
6) [Au+].c1c[n-]cn1.c1ccc([PH+](c2ccccc2)c2ccccc2)cc1 | 97
7) Nc1cc(Cl)ccc1C(=O)c1ccccc1Cl | 98
8) C[C@]12CCC3[C@@H](CC[C@@H]4c5nonc5CC[C@]34C)C1CCC2=O (stereo partly specified) | 54
9) CCNc1ncc2ccccc2c1-c1ccc(N2CCN(CCCl)CC2)cc1 | 90
10) CC1=C[n+]2cc(C)ccc2Sc2c1ccc1ccccc21 | 4

Consider now this further compound.
**Query** Give the measured growth inhibition for c1ccc([CH2][Pb]([c]2ccccc2)([c]2ccccc2)[c]2ccccc2)cc1
**Result** 95

* * *

- PROCEDURE DETAILS: NCI Yeast Anticancer Drug Screen. Data for the CLN2oe strain (AID 163);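 also: 0% = growth of vehicle-only control cultures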
- RUN PARAMETERS: S. cerevisiae CLN2oe strain, at 33.0 µM, active compounds read high
- Procedure: Growth inhibition of yeast strains with defined genetic alterations is measured as a screen for potential anti-cancer activity. Selected strains with alterations in DNA damage repair or cell cycle control were exposed to compounds and growth inhibition was measured relative to vehicle treated controls. The strain used in this assay is CLN2oe
About 79,000 compounds went through this panel and 15% of them were active in at least one assay; those are over-represented in the sample as a whole.
Collected growth inhibition values appear next to each entry.
Report as a plain number; the unit % is understood.

Study these solved cases before continuing.
1) O=c1oc2ccccc2c(O)c1C(c1ccc2ccccc2c1)c1c(O)c2ccccc2oc1=O | 78
2) Oc1cccnc1[Se] | 2
3) CC1=C(N2CC2)C(=O)c2ccccc2C1=O | 2
4) CCS(=O)(=O)[O][Sn]([CH2]C)([CH2]C)[O]S(=O)(=O)CC | -35
5) O=c1c2ccccc2[se]n1-c1cccnc1 | 84

**Query** Give the measured growth inhibition for O=[N+]([O-])c1ccc(N2CCC(CCCC3CCN(c4ccc([N+](=O)[O-])cc4[N+](=O)[O-])CC3)CC2)c([N+](=O)[O-])c1
**Result** -19

**Query** Give the measured growth inhibition for CCOC(=O)C1=C(C(=O)OCC)C2(c3ccccc3)N(O1)c1ccccc1C2(C)C (stereo not given)
**Result** -5

**Query** Give the measured growth inhibition for O=C1c2ccccc2C(=O)C(Cl)C1Cl (stereo not given)
**Result** 99

**Query** Give the measured growth inhibition for CCc1cccc(C(C)C)c1NC1=C([n+]2ccc(C)cc2)C(=O)c2ccccc2C1=O
**Result** -2

**Query** Give the measured growth inhibition for OCC(O)C(O)CO (stereo not given) (tested in a mixture with another compound)
**Result** 0

* * *

- PROCEDURE DETAILS: NCI Yeast Anticancer Drug Screen. Data for the wt1 strain (AID 149);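 also: 0% = growth of vehicle-treated wt1 cultures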
- RUN PARAMETERS: S. cerevisiae wt1 strain (SPY 50644) growth inhibition; at 33.0 µM; active compounds read high
The panel holds about 79,000 compounds, 15% with a hit somewhere; the sample as a whole holds those more often.
Label 1 for high-side growth inhibition (at or above 20%) and -1 for low-side growth inhibition (below it).

Worked cases, answers included:
1. CCCN(CCC)c1c([N+](=O)[O-])cc(S(N)(=O)=O)cc1[N+](=O)[O-] | -1
2. CN(C)CCC(C(=O)C(Br)Br)(c1ccccc1)c1ccccc1 | 1
3. COC(=O)C1C2c3ccccc3C(c3ccccc32)C1C(=O)OC (stereo not given) | -1
4. COc1ccc(OC)c(/C=C/[N+](=O)[O-])c1 | -1

**Query** For this compound, is measured growth inhibition 20% or higher? c1cc2c(cc1C1OC[C@H]3[C@@H](c4ccc5c(c4)OCO5)OC[C@@H]13)OCO2 (stereo not given in full)
**Result** -1

* * *

Collected growth inhibition values appear next to each entry.
- PROCEDURE DETAILS: NCI Yeast Anticancer Drug Screen. Data for the cln2 rad14 strain (AID 165);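 also: 0% = growth equal to vehicle treated cultures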
- RUN PARAMETERS: S. cerevisiae cln2 rad14 strain, at 5.0 µM (retest, dose inferred, filed as 0.5), active compounds read high
Compounds without any hit were thinned out: in the full panel of roughly 79,000, 15% have a hit.
Report as a plain number; the unit % is understood.

1. [Br][Cd][Br].c1ccc([PH+](c2ccccc2)c2ccccc2)cc1.c1ccc([PH+](c2ccccc2)c2ccccc2)cc1 | 4
2. COc1ccc(CNCCc2ccc(O)c(OC)c2)cc1O | -5
3. CN1CSC(=S)N(C)C1 | 13
4. C=CCCCCCCCCC(=O)O (tested in a mixture with another compound) | 6
5. CC(=O)Oc1cccc2c1CC(C[Se]c1ccccc1)C(=O)O2 (stereo not given) | 3
6. NC(=O)c1ccc(N)nc1 | 10
7. CC[CH2][Sn]([Br])([Br])[CH2]CC | 26
8. FC1(F)C(Cl)=[C]([Hg][C]2=C(Cl)C(F)(F)C(F)(F)C(F)(F)C2(F)F)C(F)(F)C(F)(F)C1(F)F | 57

**Query** Give the measured growth inhibition for CC(C)(Br)C(=O)C(Br)Br
**Result** 95

**Query** Give the measured growth inhibition for N=P(c1ccccc1)(c1ccccc1)c1ccccc1 (tested in a mixture with another compound)
**Result** -3

Values from PubChem BioAssay (NCI)
